- System: HEK-293T
- test summary: Multiplex assay against HEK293T
- Assay type: toxicity, cell-based
- measurement context: human, 48 h, 1 µM, compound concentration 1 uM, replicate 1
measured metric: Population Tubulin-Different-Phenotype (%)
One number for each entry, in %.

[[record]]
compound = "Cc1ccc(OCC(O)C(C)NC(C)C)c2c1CCC2.Cl (centres undefined)"
units_symbol = "%"
measured_number = 14


The following compounds each have a reported value; give each one's Population Tubulin-Different-Phenotype (%).
1. Nc1nc(-c2ccco2)c2cnn(Cc3ccccc3F)c2n1
2. CCCCCCNC(=O)Nc1ccc(S(=O)(=O)Nc2ccc(CCNC[C@H](O)COc3ccc(O)cc3)cc2)cc1 [L-755507]

18
15

Form field Population Tubulin-Different-Phenotype (%), entry CCC(=O)OCC(=O)[C@@]1(OC(=O)CC)[C@@H](C)C[C@H]2[C@@H]3CCC4=CC(=O)C=C[C@]4(C)[C@@]3(Cl)[C@@H](O)C[C@@]21C [BECLOMETHASONE DIPROPIONATE] : 18

----------
Kindly state Population Fragmented Nuclei (%) for each of the entries shown.
- System: Fibroblast
- test summary: Multiplex assay against human fibroblast
- Type: toxicity, cell-based
- measurement context: 12 h, 10 µM, compound concentration 10 uM, replicate 2
One number for each entry, in %.

Here is how some molecules turned out for Population Fragmented Nuclei (%).
[[record]]
smiles_data = "O=C(Nc1cc(-c2ccccc2)nn1-c1ccccc1F)c1ccc([N+](=O)[O-])cc1"
measured_metric = "Population Fragmented Nuclei (%)"
units_symbol = "%"
measured_number = 25

[[record]]
smiles_data = "CN1CCN(c2ccc(Nc3c4ccccc4nc4ccccc34)cc2)CC1.Cl.Cl.O"
measured_metric = "Population Fragmented Nuclei (%)"
units_symbol = "%"
measured_number = 65

[[record]]
smiles_data = "COCCn1c(C)c(C)s/c1=N\\C(=O)C1C(C)(C)C1(C)C"
measured_metric = "Population Fragmented Nuclei (%)"
units_symbol = "%"
measured_number = 38

[[record]]
smiles_data = "COc1ccc2[nH]c(I)c(CCNC(C)=O)c2c1"
measured_metric = "Population Fragmented Nuclei (%)"
units_symbol = "%"
measured_number = 38


Please find the next molecule below.
Form field Population Fragmented Nuclei (%), entry C[C@@H]1CC(=O)Nc2cccc(-c3ccc4c(c3)c(-c3cnn(C)c3)nn4C)c2N1 : 11

----------
Kindly state Population Healthy Nuclei (%) for each of the entries shown.
- Test system: HEK-293T
- test summary: Multiplex assay against HEK293T
- Type: toxicity, cell-based
- measurement context: human, 24 h, 1 µM, compound concentration 1 uM, replicate 1
Give bare numbers, in %.

Here is how some compounds turned out for Population Healthy Nuclei (%).
[[record]]
compound = "COCCn1c(C)c(C)s/c1=N\\C(=O)C1C(C)(C)C1(C)C"
measured_metric = "Population Healthy Nuclei (%)"
units_symbol = "%"
measured_number = 81

[[record]]
compound = "CCCCCCNC(=O)Nc1ccc(S(=O)(=O)Nc2ccc(CCNC[C@H](O)COc3ccc(O)cc3)cc2)cc1"
measured_metric = "Population Healthy Nuclei (%)"
units_symbol = "%"
measured_number = 80

[[record]]
compound = "COC(c1ccccc1)(c1ccccc1)[C@H](Oc1nc(C)cc(C)n1)C(=O)O"
measured_metric = "Population Healthy Nuclei (%)"
units_symbol = "%"
measured_number = 76

[[record]]
compound = "CC(C)(O)C(=O)N1CCN(c2ccc(C(F)(F)F)c(C3=C(c4c[nH]c5ccccc45)C(=O)NC3=O)c2)CC1"
measured_metric = "Population Healthy Nuclei (%)"
units_symbol = "%"
measured_number = 74

[[record]]
compound = "Cc1cc(=O)n(C)c2cc(N3C(=O)CC[C@H](NS(=O)(=O)CC(C)C)[C@H]3c3ccc(Cl)cc3)ccc12"
measured_metric = "Population Healthy Nuclei (%)"
units_symbol = "%"
measured_number = 81


The following compounds each have a reported value; give each one's Population Healthy Nuclei (%).
1. Cc1sc2c(c1C)C(c1ccc(Cl)cc1)=N[C@H](CC(=O)OC(C)(C)C)c1nnc(C)n1-2
2. Cc1c(Cc2ccc3ccccc3n2)c2cc(F)ccc2n1CC(=O)O
3. CC(C)C[C@H](CO)Nc1nc(S[C@@H](C)c2ccccc2)nc2nc(N)sc12

1. 76
2. 81
3. 76

----------
- Test system: Fibroblast
- test summary: Multiplex assay against human fibroblast
- Format: toxicity, cell-based
- measurement context: 24 h, 10 µM, compound concentration 10 uM, replicate 2
Binary classification by Population Apoptotic (%), with 40% as an inclusive lower bound for t; all other cases are f.

[[record]]
compound = "Cc1c(Cc2ccc3ccccc3n2)c2cc(F)ccc2n1CC(=O)O"
group = "t"

[[record]]
compound = "O=C(NCCNCC(O)COc1ccc(O)cc1)N1CCOCC1.O=C(NCCNCC(O)COc1ccc(O)cc1)N1CCOCC1.O=C(O)/C=C/C(=O)O (centres undefined) [XAMOTEROL FUMARATE]"
group = "t"

[[record]]
compound = "COCCCN1CCC(NC(=O)c2cc(Cl)c(N)c3c2OCC3)CC1 [PRUCALOPRIDE]"
group = "f"

[[record]]
compound = "CCn1c(-c2nc3cc(C(=O)N4CCCC(N)C4)ccc3n2C)cc2ccccc21.Cl (centres undefined)"
group = "t"


Could you tell me if the measured Population Apoptotic (%) of COCCn1c(C)c(C)s/c1=N\C(=O)C1C(C)(C)C1(C)C reaches 40% or more?
f

Could you tell me if the measured Population Apoptotic (%) of CSc1nc(NC2CCCC2)c([N+](=O)[O-])c(NC2CCCC2)n1 reaches 40% or more?
f

----------
- Tested on: HEK-293T
- test summary: Multiplex assay against HEK293T
- Assay type: toxicity, cell-based
- measurement context: human, 24 h, 1 µM, compound concentration 1 uM, replicate 1
measured metric: Total Cell Count
One number for each entry.

[[record]]
molecule = "COc1ccc2c(c1OCc1ccccc1)C[C@@H](C(=O)O)N(C(=O)C(c1ccccc1)c1ccccc1)C2"
measured_metric = "Total Cell Count"
measured_number = 614

[[record]]
molecule = "CCc1nn2c(C)cc(C)nc2c1Cc1ccc(-c2nnc(C3CCNCC3)o2)cc1"
measured_metric = "Total Cell Count"
measured_number = 529

[[record]]
molecule = "CN1C[C@H](C(=O)N[C@]2(C)O[C@@]3(O)[C@@H]4CCCN4C(=O)[C@H](Cc4ccccc4)N3C2=O)C[C@@H]2c3cccc4[nH]cc(c34)C[C@H]21.CS(=O)(=O)O [DIHYDROERGOTAMINE MESYLATE]"
measured_metric = "Total Cell Count"
measured_number = 621

[[record]]
molecule = "COc1ccc2[nH]c(I)c(CCNC(C)=O)c2c1"
measured_metric = "Total Cell Count"
measured_number = 511

[[record]]
molecule = "N[C@](CC1c2ccccc2Oc2ccccc21)(C(=O)O)[C@H]1C[C@@H]1C(=O)O"
measured_metric = "Total Cell Count"
measured_number = 629


Form field Total Cell Count, entry CCC(=O)OCC(=O)[C@@]1(OC(=O)CC)[C@@H](C)C[C@H]2[C@@H]3CCC4=CC(=O)C=C[C@]4(C)[C@@]3(Cl)[C@@H](O)C[C@@]21C [BECLOMETHASONE DIPROPIONATE] : 507

----------
- System: Fibroblast
- test summary: Multiplex assay against human fibroblast
- Type: toxicity, cell-based
- measurement context: 48 h, 1 µM, compound concentration 1 uM, replicate 1
Binary classification by Population Tubulin-Different-Phenotype (%), with 40% as an inclusive lower bound for Y; all other cases are N.

Field: example entries. Status: answers known.
[[record]]
molecule = "CN1CCN2c3ccccc3Cc3ccccc3C2C1.Cl (stereo not given) [MIANSERIN HYDROCHLORIDE]"
group = "N"

[[record]]
molecule = "Cn1cc(C(=O)OCC2CCN(CCNS(C)(=O)=O)CC2)c2ccccc21"
group = "N"

[[record]]
molecule = "S=C(NCCCc1c[nH]cn1)NCCCN(Cc1ccc(Cl)c(Cl)c1)c1ccc(Br)cn1"
group = "N"


Could you tell me if the measured Population Tubulin-Different-Phenotype (%) of CN(C)C(=O)Cn1cc(-c2ccc(-c3nnc4ccccn34)cc2)cn1 reaches 40% or more?
N

Could you tell me if the measured Population Tubulin-Different-Phenotype (%) of O=c1ccc2ccc(OCCCCN3CCN(c4cccc5sccc45)CC3)cc2[nH]1 [BREXPIPRAZOLE] reaches 40% or more?
Y

----------
- Test system: Fibroblast
- test summary: Multiplex assay against human fibroblast
- Format: toxicity, cell-based
- measurement context: 24 h, 10 µM, compound concentration 10 uM, replicate 1
measured metric: Population Apoptotic (%)
Answers are plain numbers, in %.

[[record]]
compound = "COc1cc(Nc2ncc3c(n2)-c2ccc(Cl)cc2C(c2c(F)cccc2OC)=NC3)ccc1C(=O)O"
target_desc = "Fibroblast"
measured_number = 64

[[record]]
compound = "CN(C)C(=O)Cn1cc(-c2ccc(-c3nnc4ccccn34)cc2)cn1"
target_desc = "Fibroblast"
measured_number = 65

[[record]]
compound = "COC(c1ccccc1)(c1ccccc1)[C@H](Oc1nc(C)cc(C)n1)C(=O)O"
target_desc = "Fibroblast"
measured_number = 69

[[record]]
compound = "CC(C)(C)c1ccc(CSc2cnn(C(C)(C)C)c(=O)c2Cl)cc1"
target_desc = "Fibroblast"
measured_number = 56

[[record]]
compound = "CCCCC[C@H](O)/C=C/[C@H]1[C@H](O)CC(=O)[C@@H]1CCCCCCC(=O)O"
target_desc = "Fibroblast"
measured_number = 63


The following compounds each have a reported value; give each one's Population Apoptotic (%).
1. CCc1nn2c(C)cc(C)nc2c1Cc1ccc(-c2nnc(C3CCNCC3)o2)cc1
2. COc1cc2nc(N3CCN(C(=O)c4ccco4)CC3)nc(N)c2cc1OC.Cl [PRAZOSIN HYDROCHLORIDE]
3. Nc1nc(-c2ccco2)c2cnn(Cc3ccccc3F)c2n1
4. CC(C)C[C@H](CO)Nc1nc(S[C@@H](C)c2ccccc2)nc2nc(N)sc12

53
46
70
57
